Assignment: determine reported glycan array binding signal (z-score) for the given binders.
STUDY_TARGET: Fuc(a1-2)Gal
TEST_SUMMARY: glycan array binding signal (z-score within array); higher = stronger binding
REPORTED_CONDITIONS: glycan notation: IUPAC condensed, linker removed
About 410 targets per protein were measured; listed, in parts, are those with the strongest signals and a random draw of the rest.
Lab note: record the figure alone, no unit after it.

Value of glycan array binding signal (z-score) reported for the binder SP15308C-bot-338-23-338 (Bacteroides ovatus) (protein) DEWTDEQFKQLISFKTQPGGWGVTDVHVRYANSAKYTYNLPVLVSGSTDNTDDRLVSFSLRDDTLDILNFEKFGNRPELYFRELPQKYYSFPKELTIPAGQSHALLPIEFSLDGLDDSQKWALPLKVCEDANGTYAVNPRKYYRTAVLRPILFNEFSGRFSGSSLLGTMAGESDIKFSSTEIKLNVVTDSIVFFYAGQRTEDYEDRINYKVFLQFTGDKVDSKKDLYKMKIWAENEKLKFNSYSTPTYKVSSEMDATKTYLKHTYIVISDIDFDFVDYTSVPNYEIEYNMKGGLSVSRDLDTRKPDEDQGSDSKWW is -0.164

Value of glycan array binding signal (z-score) reported for the binder LBL-152 (Laetiporus bicolor), B0D650 (protein) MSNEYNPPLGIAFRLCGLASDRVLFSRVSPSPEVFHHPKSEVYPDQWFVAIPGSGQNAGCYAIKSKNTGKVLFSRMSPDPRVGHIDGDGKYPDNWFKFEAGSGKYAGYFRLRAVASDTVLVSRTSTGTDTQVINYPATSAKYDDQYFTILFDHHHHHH is -0.151

Value of glycan array binding signal (z-score) reported for the binder HPL (Tachypleus tridentatus) (protein) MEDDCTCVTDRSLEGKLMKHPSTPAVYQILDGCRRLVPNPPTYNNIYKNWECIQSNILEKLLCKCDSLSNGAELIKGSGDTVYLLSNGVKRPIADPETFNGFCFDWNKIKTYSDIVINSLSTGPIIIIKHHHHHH is -0.153

Value of glycan array binding signal (z-score) reported for the binder Si Bti9 1b-HA (Solanum lycopersicum) (protein) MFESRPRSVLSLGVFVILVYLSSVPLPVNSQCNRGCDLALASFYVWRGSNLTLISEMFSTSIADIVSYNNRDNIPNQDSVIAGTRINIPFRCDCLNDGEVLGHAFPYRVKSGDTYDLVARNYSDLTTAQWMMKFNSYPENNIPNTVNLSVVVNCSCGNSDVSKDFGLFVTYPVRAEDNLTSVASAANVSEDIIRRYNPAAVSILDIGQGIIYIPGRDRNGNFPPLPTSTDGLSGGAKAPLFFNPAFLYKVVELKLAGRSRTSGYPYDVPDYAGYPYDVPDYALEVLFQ is -0.051

Value of glycan array binding signal (z-score) reported for the binder LlpB (Pseudomonas fluorescens) (protein) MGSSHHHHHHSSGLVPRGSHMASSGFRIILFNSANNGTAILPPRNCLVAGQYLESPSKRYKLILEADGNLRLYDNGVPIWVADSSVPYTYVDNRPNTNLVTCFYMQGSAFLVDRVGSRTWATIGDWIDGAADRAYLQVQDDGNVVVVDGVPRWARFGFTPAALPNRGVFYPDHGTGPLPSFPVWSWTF is -0.044
